System: PC-9 (EGFR exon 19 deletion)
assayName: Cell antiproliferative assay (CTG, 72 h), PC-9
Format: cell-based, human
measurementContext: Homo sapiens, PC-9, 72 h, Table 2, PC-9 cells
parameter: IC50

Consider the reported IC50 for these compounds:
- compound: "COc1cc(N2CCN(C(=O)CN3CCC(c4ccc(NC5CCC(=O)NC5=O)cc4)CC3)CC2)ccc1Nc1ncc(C(F)(F)F)c(Nc2ccccc2C(C)=O)n1 (stereo not drawn) [Compound T-47]"
  IC50: "100 to 1000 nM"
- compound: "COc1cc(N2CCN(C(=O)CN3CCC(c4ccc(NC5CCC(=O)NC5=O)cc4)CC3)CC2C)ccc1Nc1ncc(Cl)c(Nc2ccccc2C(C)=O)n1 (stereo not drawn) [Compound T-60]"
  IC50: "100 to 1000 nM"
- compound: "COc1cc(N2CCN(C(=O)CN3CCC(c4ccc(NC5CCC(=O)NC5=O)cc4)CC3)CC2)ccc1Nc1ncc(C(F)(F)F)c(-c2cn(C)c3ccccc23)n1 (stereo not drawn) [Compound T-135]"
  IC50: "≥ 1000 nM"
- compound: "COc1cc(N2C3CCC2CN(C(=O)CN2CCC(c4ccc(NC5CCC(=O)NC5=O)cc4)CC2)C3)ccc1Nc1ncc(Cl)c(Nc2ccccc2C(C)=O)n1 (stereo not drawn) [Compound T-191]"
  IC50: "100 to 1000 nM"
- compound: "CC(=O)c1ccccc1Nc1nc(Nc2ccc(N3CCN(C(=O)CN4CCC(c5ccc(NC6CCC(=O)NC6=O)cc5)CC4)CC3)cc2OC(C)C)ncc1Cl (stereo not drawn) [Compound T-179]"
  IC50: "≥ 1000 nM"

## Task # IC50 lookup, item CNC(=O)c1ccccc1Nc1nc(Nc2ccc(N3CCN(C(=O)CN4CCC(c5ccc(NC6CCC(=O)NC6=O)cc5)CC4)CC3)cc2OC)ncc1Br (stereo not drawn) [Compound T-185]
## Result 100 to 1000 nM

Origin of measurements: patent US20250129086A1
